Kindly state half-life for each of the entries shown.
- TEST: Half-life in cynomolgus monkey at 1 mg/kg, po administered as cassette dose by LC-MS/MS analysis
- Type: ADME, organism-based, Macaca fascicularis
- CONDITION NOTES: in vivo
Answer format: number, then unit.

Consider the worked cases shown below.
CCCCN(c1nc2c(NC(C)=O)cccc2o1)[C@H](C)c1ccc(-c2ccccc2-c2nnn[nH]2)cc1 : 2.2 h
C[C@H](c1ccc(-c2cc(Cl)ccc2-c2nc(=O)o[nH]2)cc1)N(CC1CC1)c1nc2c(C(=O)O)cccc2o1 : 0.8 h
CCCCN(c1nc2c(C(=O)N(C)C)cccc2o1)[C@H](C)c1ccc(-c2ccccc2-c2nnn[nH]2)cc1 : 3.2 h

Provide half-life for all items below, preserving their order.
1. C[C@H](c1ccc(-c2cc(F)ccc2-c2nc(=O)o[nH]2)cc1)N(CC1CC1)c1nc2c(C(=O)O)cccc2o1
2. CCCCN(c1nc2c(C(=O)NS(C)(=O)=O)cccc2o1)[C@H](C)c1ccc(-c2ccccc2-c2nnn[nH]2)cc1
3. CCCCN(c1nc2c(C(=O)O)cccc2o1)[C@H](C)c1ccc(-c2cc(F)ccc2-c2nc(=O)o[nH]2)cc1
4. C[C@H](c1ccc(-c2ccccc2-c2nc(=O)o[nH]2)cc1)N(CC1CC1)c1nc2c(C(=O)O)cccc2o1

output:
1: 4.1 h; 2: 2.7 h; 3: 2.2 h; 4: 2.6 h

input: Read off the recorded half-life for `CCCCN(c1nc2c(C(=O)NC)cccc2o1)[C@H](C)c1ccc(-c2ccccc2-c2nnn[nH]2)cc1`
output: 1.3 h
